MEASUREMENT NOTES: calorie-restriction mimetic ROS inhibitors, yeast – validation compound set, pilot screen (AID 2706);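 also: yeast exposed to compound for one week at 30 degrees C before staining; 100% = mean of all compound wells on the same plate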
MEASUREMENT SETUP: S. cerevisiae aging, superoxide DHE fluorescence; at 10 µM; stronger effect = lower value
MEASUREMENT LABEL: superoxide response (% of plate) (%)
# value in %; strip the unit string

### Prompt For the molecule CC[C@H](C)C(=O)O[C@H]1C[C@@H](C)C=C2C=C[C@H](C)[C@H](CC[C@@H]3C[C@@H](O)CC(=O)O3)[C@H]21 , report superoxide response (% of plate).
### Response 93.1

### Prompt For the molecule O=C1CC(c2ccc(O)cc2)Oc2cc(O)cc(O)c21 (stereo unspecified) , report superoxide response (% of plate).
### Response 91.7

### Prompt For the molecule COc1ccc(CCNc2ncnc3c2[nH]c2cc(OC)c(OC)cc23)cc1OC , report superoxide response (% of plate).
### Response 97.5

### Prompt For the molecule Cc1ccc2c(c1C)NC(C(=O)O)C1CC=CC21 (stereo unspecified) , report superoxide response (% of plate).
### Response 101

### Prompt For the molecule Cc1cc(C(=O)Nc2ccccc2C(=O)N2CCCCC2)ccc1[N+](=O)[O-] , report superoxide response (% of plate).
### Response 124

### Prompt For the molecule CC(C)[C@H]1CN(C)CCN1Cc1cn(C)nc1-c1cccc(Cl)c1 , report superoxide response (% of plate).
### Response 104

### Prompt For the molecule Cc1ccc2nc(N=C(N)N)nc(C)c2c1 , report superoxide response (% of plate).
### Response 91.5

### Prompt For the molecule C=C(C)Cn1c(NCCOC)nc2c1c(=O)[nH]c(=O)n2C , report superoxide response (% of plate).
### Response 98.4

### Prompt For the molecule COc1ccc(Br)cc1C(=O)Nc1ccc(C(=O)O)cc1 , report superoxide response (% of plate).
### Response 97.6

### Prompt For the molecule Cc1cc(/C=N/O)c(C)n1-c1ccc(Br)cc1 , report superoxide response (% of plate).
### Response 115

### Prompt For the molecule COc1ccc(C2OC(=O)Cc3cc(OC)c(OC)cc32)cc1 (stereo unspecified) , report superoxide response (% of plate).
### Response 94.5

====

MEASUREMENT NOTES: reduced mouse 2C T cell binding to pMHC/ICAM-1 vesicles – MLPCN validation set, flow cytometry, LFA-1/ICAM-1 modulator project, pilot screen (AID 2523)
MEASUREMENT SETUP: 2C mouse CD8+ T cells, at 7 µM, stronger effect = lower value; measured here: CD8+/vesicle+ event percentage
MEASUREMENT LABEL: double positive events (%)
# value in %; strip the unit string

### Prompt For the compound O=C(/C=C/c1ccccc1)NCC1(c2ccccc2)CCOCC1 , report double positive events.
### Response 64.3

### Prompt For the compound Cc1cccc2c(C(=O)O)cc(-c3cccnc3)nc12 , report double positive events.
### Response 63.5

### Prompt For the compound CC1(C)CC(O)(CNCc2ccc3c(c2)OCO3)CCO1 (stereo not drawn) , report double positive events.
### Response 66.2

### Prompt For the compound NS(=O)(=O)c1ccc(CNC(=O)c2cc(-c3ccccc3)nc3ccccc23)cc1 , report double positive events.
### Response 59.3

### Prompt For the compound COc1ccccc1OS(=O)(=O)c1ccc(NC(C)=O)cc1 , report double positive events.
### Response 57.8

### Prompt For the compound COc1c(C=O)c(CCN(C)C(=O)c2ccc(F)cc2)cc2c1OCO2 , report double positive events.
### Response 59.6

### Prompt For the compound O=C(Cc1ccccc1)NNC(=O)Cc1ccccc1 , report double positive events.
### Response 63.3

### Prompt For the compound Cc1c(Cc2ccccc2)c(=O)oc2c(CN(C)C)c(O)c(Cl)cc12 , report double positive events.
### Response 61.8

### Prompt For the compound CC(=O)OCC#CCSc1nc2ccccc2n1C , report double positive events.
### Response 57.8

### Prompt For the compound Clc1ccc(CCNc2ncnc3nc[nH]c23)cc1 , report double positive events.
### Response 60.8

### Prompt For the compound C=C1C2(C(=O)Nc3ccc(SC(F)F)cc3)CCC(C2)C1(C)C (stereo not drawn) , report double positive events.
### Response 66.3

### Prompt For the compound CC(C)C12CN3CC(C(C)C)(CN(C1)C3c1ccccc1O)C2=O (stereo not drawn) , report double positive events.
### Response 66.6

### Prompt For the compound CCN(CC)C(=O)N1CCN(C)CC1 , report double positive events.
### Response 63.6

### Prompt For the compound O=C(Nc1cccc(Oc2c(F)c(F)c(F)c(F)c2F)c1)N1C[C@@H]2C[C@@H](C1)c1cccc(=O)n1C2 , report double positive events.
### Response 63.7

### Prompt For the compound CCCNC(C)C(=O)Nc1ccccc1C (stereo not drawn) , report double positive events.
### Response 60.4

### Prompt For the compound NS(=O)(=O)c1cc2c(cc1Cl)NCNS2(=O)=O , report double positive events.
### Response 62.4

### Prompt For the compound CCN(CCCCCN(C)C)Cc1cc2ccccc2o1 , report double positive events.
### Response 64.4

### Prompt For the compound COc1ccc2c(c1OC)C(C1c3c(cc4c(c3OC)OCO4)CCN1C)OC2=O (stereo not drawn) , report double positive events.
### Response 60.6

### Prompt For the compound Cc1ccccc1NC(=O)C1(C)Cc2ccccc2C(=O)O1 (stereo not drawn) , report double positive events.
### Response 61.4

### Prompt For the compound COc1cc2oc(-c3ccc(O)cc3)cc(=O)c2c(OC)c1O , report double positive events.
### Response 56.3

### Prompt For the compound Cc1nnc(SCC2=C(C(=O)O)N3C(=O)[C@@H](NC(=O)Cn4cnnn4)[C@H]3SC2)s1 , report double positive events.
### Response 61.6

### Prompt For the compound C[C@]12C[C@H](O)[C@H]3[C@@H](CCC4=CC(=O)CC[C@@]43C)[C@@H]1CC[C@@H]2C(=O)CO , report double positive events.
### Response 70.2

### Prompt For the compound Nc1nc2c(nc(SCc3ccccc3Br)n2C2OC(CO)C(O)C2O)c(=O)[nH]1 (stereo not drawn) , report double positive events.
### Response 62.7
